Where do the numbers come from? From patent US20150087812A1.

Biological target: recombinant human ATX beta isoform with N-terminal purification tag (human, UniProt Q13822 49-863)
Assay: Fab-His ELISA
Procedure: Fabs were captured on black MaxiSorp plates (Nunc, Cat. No. 437111) coated with 1 μg/ml sheep anti-human Fd (CH1) antibody (The Binding Site, Cat. No. PC075). Plates were washed and biotinylated human ATX was added to the captured Fabs at 5 nM. Incubation was carried out for 1 hour at room temperature with gentle shaking. Plates were washed, SA-HRP (Invitrogen, Cat. No. 43-4323) was added and chemiluminescent detection carried out. […]
In this section we review reported fold above background values for a set of binders.

The following binders have reported results that may help.
Fab F2 (VH H2, VL L1) (Fab, V domains shown, Soluble Fab-His) VH: QVQLVQSGAEVKKPGSSVKVSCKASGGTFSSYAISWVRQAPGQGLEWMGGIIPIFGTANYAQKFQGRVTITADESTSTAYMELSSLRSEDTAVYYCARDDLPLGRLDYWGQGTLVTVSS VL: EIVLTQSPATLSLSPGERATLSCRASQSVRNFLAWYQQKPGQAPRLLIYDASNRATGIPARFSGSGSGTDFTLTISSLEPEDFAVYYCQQGYRAPITFGQGTKVEIK
≥ 6 fold
Fab F53 (VH H2, VL L30) (Fab, V domains shown, Soluble Fab-His; converted to mAb B4; also called P53) VH: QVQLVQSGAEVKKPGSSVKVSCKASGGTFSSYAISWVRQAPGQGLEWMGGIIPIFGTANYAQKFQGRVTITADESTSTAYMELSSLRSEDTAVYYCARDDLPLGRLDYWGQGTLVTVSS VL: EIVLTQSPATLSLSPGERATLSCRASQSVNKHLAWYQQKPGQAPRLLIYKASNRATGIPARFSGSGSGTDFTLTISSLEPEDFAVYYCQQGIRAPYTFGQGTKVEIK
≥ 6 fold

Please turn your attention to the following entry.
# input For Fab F89 (VH H70, VL L82) (Fab, V domains shown, Soluble Fab-His; converted to mAb B9) VH: QVQLVQSGAEVKKPGSSVKVSCKASGGTFSSYAISWVRQAPGQGLEWMGGISPYFGNANYAQKFQGRVTITADESTSTAYMELSSLRSEDTAVYYCARYGDFGGNVFTEFDYWGQGTLVTVSS VL: EIVLTQSPGTLSLSPGERATLSCRASQSVNNSDLAWYQQKPGQAPRLLIYTASSRATGIPDRFSGSGSGTDFTLTISRLEPEDFAVYYCQQATTVPLTFGQGTKVEIK , what is its reported fold above background?
# output ≥ 6 fold
